- Test system: NQO1 activation in BEAS-2B cells
- experimentalProtocol: BEAS-2B cellular MTT assay of NQO1 activation, 0.3% HSA
- Format: cell-based
- conditionDetails: Homo sapiens, BEAS+, read-out: BEAS+ EC50
Checkbox rule: EC50 lower than 10 nM = t; EC50 not lower than 10 nM = f.

Some solved entries appear below for comparison.
[[record]]
compound = "Cc1cc2ccc1C(=O)N1CCc3ccc(cc3C1)C(CC(=O)O)c1cnc3c(nnn3CCCCCC2)c1C (stereo not shown)"
labelvalue = "f"

[[record]]
compound = "Cc1cc2ccc1C(=O)N1CCc3ccc(cc3C1)[C@@H](CC(=O)O)c1ccc3c(nnn3CCCCCC2)c1C"
labelvalue = "t"

[[record]]
compound = "O=C(O)CC1c2ccc3c(c2)CN(CC3)C(=O)c2ccc(c3ccccc23)OCCCCCCn2nnc3cc1ccc32 (stereo not shown)"
labelvalue = "f"

[[record]]
compound = "CC(C)(C(=O)O)C1c2ccc3c(c2)CN(CC3)C(=O)c2ccc(cc2)CCCCCCn2nnc3cc1ccc32 (stereo not shown)"
labelvalue = "f"

[[record]]
compound = "O=C(O)CC1c2ccc3c(c2)CN(CC3)C(=O)c2c(F)cc(cc2F)OCCCCCCn2nnc3cc1ccc32 (stereo not shown)"
labelvalue = "f"


Then this compound:
[ask] Is the reported EC50 for O=C(O)CC1c2ccc3c(c2)CN(CC3)C(=O)c2ccc(cc2F)OCCCCCCn2nnc3cc1ccc32 (stereo not shown) strictly below 10 nM?
[reply] f
